assayRemarks: gradient 5% acetonitrile 3 min, to 50% in 2 min, to 85% in 15 min, held 3 min, 100 µL/min
testSettings: column: Zorbax Extend-C18 2.1 x 50 mm; eluents: water / acetonitrile, 0.1% formic acid
testReadout: RP-LC retention time

# molecule, testReadout, measValue
data = [
    ("O=C(NCc1ccc(F)c(Cl)c1)c1ccc(NC(=O)C2CCC2)cc1N1CCOCC1", "RP-LC retention time", "909 s"),
    ("CCSCCOC(=O)C1=C(C)NC2=C(C(=O)CCC2)C1c1ccccc1OC (stereo not drawn)", "RP-LC retention time", "727 s"),
    ("Cc1cc(C)n(-c2nc(C)c(C(=O)Nc3ccccc3F)s2)n1", "RP-LC retention time", "1120 s"),
    ("O=C(NC1(N2CCOCC2)CC1)c1ccc(Cl)cc1", "RP-LC retention time", "667 s"),
    ("COc1ccc2c(c1)C1(CCN(C(=O)c3cccc(F)c3)C1)C(=O)N2C (stereo not drawn)", "RP-LC retention time", "782 s"),
    ("CCNC(=O)c1nc(C(=O)NC2CCCCC2)cs1", "RP-LC retention time", "783 s"),
    ("O=C(Cc1ccccc1)NCCSc1c[nH]c2ccccc12", "RP-LC retention time", "790 s"),
    ("CC(C)CC(=O)N1CCN(c2ccc(=O)n(-c3ccc(C(C)C)cc3)n2)CC1", "RP-LC retention time", "902 s"),
]

All values here come from the METLIN SMRT retention time set (Domingo-Almenara et al. 2019).
